Target: recombinant soluble homotrimeric HA, A/common magpie/Hong Kong/5052/07 (H5N1) (influenza A virus A/common magpie/Hong Kong/5052/2007 (H5N1))
Experiment: microarray, trimeric HA, transfection supernatant
Details: remark: other sources report otherwise

| Binder | Trimeric HA Binding RLU [RLU] |
| --- | --- |
| TCN-540 (5060_F05) (antibody, V domains shown) VH: QVQLVQSGGGVVQPGRSLRLSCAASGFTFSSYAMHWVRQAPGKGLEWVAIISYDGNDQYYTDSVKGRFTISRDSSKVYLQMHRLRPEDTAVYYCAKEFETSGYFHGSFDYWGQGILVTVSS VL: QSALTQPASVSGSPGQSITISCTGTSSDVGGYNYVSWYQQHPGKAPKLLIYEVTNWPSGVSNRFSGSKSGNTASLTISGLQAEDEADYYCSSYAGSSTWVFGGGTRVTVL | 1800 |
| TCN-557 (5081_A04) (antibody, V domains shown) VH: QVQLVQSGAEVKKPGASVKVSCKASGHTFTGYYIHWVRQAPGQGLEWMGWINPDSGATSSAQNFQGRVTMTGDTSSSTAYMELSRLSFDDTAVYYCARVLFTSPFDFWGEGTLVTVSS VL: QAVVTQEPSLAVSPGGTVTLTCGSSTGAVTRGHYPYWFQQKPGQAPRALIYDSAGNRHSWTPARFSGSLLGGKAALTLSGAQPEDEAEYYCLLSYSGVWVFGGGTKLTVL | 54900 |

Values from patent US20150104459A1
